For each record, write down the corresponding ELISA OD.
Molecular target: rat MCP-1 (rat, UniProt P14844 24-148)
Sequence (P14844 24-148 limits assumed): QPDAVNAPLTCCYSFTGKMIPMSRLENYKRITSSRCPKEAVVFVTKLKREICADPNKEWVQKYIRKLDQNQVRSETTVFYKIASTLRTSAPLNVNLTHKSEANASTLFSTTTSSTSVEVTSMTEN
Test: ELISA, coated antigen
Hi! Could you send only the number? It should be in OD450, unit omitted.

Input anti-MCP-1 mAb 3.5.1 (antibody, V domains shown) VH: QVQLVQSGAEVKKPGASVKVSCKVSGYTLSELSMHWVRQAPGKGLEWMGGFDPEDDETIYAQKFQGRVTMTEDTSTDTAFMELSSLRSEDTAVYYCATHDFWSGYFHYWGQGTLVTVSS VL: DIVMTQSPDSLAVSLGERATINCKSSQSVLYSSDNKSYLVWYQQKPGQPPKVLIYWASIRESGVPDRFSGSGSGTDFTLTISSLQAEDVAVYYCQQYYTSPWTFGQGTKVEIKR . Output ELISA OD: 0.053

Lab note: anti-MCP-1 mAb 3.4.1 (antibody, V domains shown) VH: QVQLVQSGAEVKKPGASVKVSCKVSGYTLTELSMHWVRQAPGKGLEWMGGFDPEDGETMYAQKFQGRVTMTEDTSTDTAYMELSSLRSEDTAVYYCATDDFWSGYFDYWGQGTLVTVSS VL: DIVMTQSPDSLAVSLDERATINCKSSQSVLYSPNQKNYLVWYQQKPGQPPKLLLYWASIRESGVPDRFSGSGSGTDFTLTISSLQAEDVAVYYCQQSYFTPWTFGQGTKVEIKR gave ELISA OD of 0.053

// ELISA OD value for anti-MCP-1 mAb 1.11.1 (antibody, V domains shown) VH: QVQVVQSGAEVKNPGASVKVSCKVSGSTLTELSMHWVRQAPGKGLEWMGGFDPEDGETIYAQKFQGRVTMTEDTSTDTVYMELSSLRSEDTAVYYCATNDFWSGYFDYWGQGTLVTVSS VL: DIVMTQSPDSLAVSLGERATITCKSSQTVLYSSNNKNYLVWYQQKSGQPPKLLIHWASIRESGVPDRFSGSGSGTDFTLTISSLQAEDVAVYYCQQYYSSPWTFGQGTKVEIKR : 0.052

Reported ELISA OD for anti-MCP-1 mAb 3.10.1 (antibody, V domains shown) VH: QVQLVQSGAEVKKPGASVKVSCKVSGYTLTELSMHWVRQAPGKGLEWMGGFDPEDGETIYAQKFQGRVMMTEDTSTDTAFMDLSSLRSEDTAVYYCATDDMLTPHYLYFGMDVWGQGTTVTVSS VL: DIQMTQSPSSLSASVGDRVTITCRASQGIRNDLGWYQQKPGKAPKRLIYATSSLQSGVPSRFSGSGSGTEFTLTISSLQPEDFATYYCLQHNTYPFTFGPGTKVDIKR was 0.045

ELISA OD reading for anti-MCP-1 mAb 1.1.1 (antibody, human IgG2, kappa, V domains shown) VH: QVQLVQSGAEVKKPGASVKVSCKVSGYTLTELSMHWVRQAPGNGLEWMGGFDPEDGETIYAQRFQGRVVMTEDPSTDTAYMELSSLRSEDTAVYYCATNEFWSGYFDYWGQGTLVTVSS VL: DIVMTQSPDSLAMSLGERATINCKSSQSVLYSSNNKNYLVWYQQKPGQPPKLLIYWASIRESGVPDRFSSSGSETDFTLTISSLQAEDVAVYYCQQYFSSPWTFGQGTKVEIKR : 0.051
